Data provenance is patent US11214803B2.

- System: Yap1 mRNA
- procedure summary: Dose-dependent inhibition of human Yap1 in A-431 cells (Example 8, 10,000 cells per well, RTS4814)
- Format: cell-based
- test parameters: 500.0 nM; A-431 cells, 10,000 cells per well, free uptake, approximately 48 hours, RTS4814
Strand notation (5' to 3'): a small letter for the sugar, then the base; units joined by * are phosphorothioate-linked, units joined directly phosphodiester-linked; [ ] holds rarer units or linkages, { } end groups; capitals alone tell only the bases. k = constrained ethyl (cEt); [5mC] = 5-methylcytosine; d = 2'-deoxy (DNA)
reported endpoint: Yap1 mRNA, % UTC (% UTC)
Lab book: enter the figure in % UTC, no units written.

[Q] Using known records, supply Yap1 mRNA, % UTC for 1075112 (kA*kT*kA*dT*dA*dG*dG*dA*dA*dT*dA*dT*dG*kG*kG*kT; antisense) [compound 1075112]
[A] 13

[Q] Using known records, supply Yap1 mRNA, % UTC for 1075078 (antisense k[5mC]*kA*kA*d[5mC]*dT*dA*dT*dA*d[5mC]*dG*dG*dT*d[5mC]*k[5mC]*kA*kT) [compound 1075078]
[A] 12

[Q] Using known records, supply Yap1 mRNA, % UTC for 1074800 (k[5mC]*kA*kA*dA*dT*dA*dG*dT*dG*d[5mC]*dT*dT*dT*kG*kG*kA; antisense) [compound 1074800]
[A] 10
